Where do the numbers come from? From the RepoRT retention time repository (doi:10.1021/acs.analchem.2c02893).

experiment: RP, Thermo Scientific Acclaim RSLC 120 C18, 100 × 2.1 mm, 2.2 µm, 30 °C, 0.2 mL/min, estimated dead time 1.1 min; A: 90% water + 10% methanol + 0.01% formic acid + 5 mM ammonium formate, pH 3.61; B: methanol + 0.01% formic acid + 5 mM ammonium formate, pH 3.61; gradient (min/%B) 0/1 1/1 2/39 13/99.9 15/99.9 15.1/1 20.1/1; settings: stereoisomer not certain
Please use TRUE whenever LC retention time is not below 8 min, and FALSE whenever it is.

Quick check: does CCC1C(=O)OCC1Cc1cncn1C (stereo not drawn) have LC retention time greater than or equal to 8 min?
FALSE

I'd appreciate it if you could say whether CC(C)CC1Nc2cc(Cl)c(S(N)(=O)=O)cc2S(=O)(=O)N1 (stereo not drawn) [Butizide] has LC retention time at least equal to 8 min.
FALSE

Hello, I need to know if CCOC(=O)C1CC(=O)C(=C(O)C2CC2)C(=O)C1 (stereo not drawn) has measured LC retention time not below 8 min. Thanks!
TRUE

Entry CC(=O)Oc1ccc(C(c2ccc(OC(C)=O)cc2)c2ccccn2)cc1 : is its LC retention time no less than 8 min?
TRUE

Reported LC retention time reaches at least 8 min for CCCCCn1cc(C(=O)c2cccc3ccccc23)c2cc(O)ccc21 ?
TRUE

Please check the record CSc1ccc2c(c1)N(CCC1CCCCN1C)c1ccccc1S2=O (stereo not drawn) [Thioridazine-5-sulfoxide] and state if its LC retention time is at or above 8 min.
FALSE

Record C(=Cc1ccccc1)CN1CCN(C(c2ccccc2)c2ccccc2)CC1 ; criterion: LC retention time no lower than 8 min. Met?
TRUE

Does the compound COCC(C)N(C(=O)CCl)c1c(C)csc1C (stereo not drawn) [Dimethenamide] have recorded LC retention time that is 8 min or more?
TRUE

Confirm if LC retention time reported for the compound C[N+](C)([O-])CCC(c1ccccc1)c1ccccn1 (stereo not drawn) [Pheniramine N-Oxide] is 8 min or above.
FALSE

Please check the record Cc1cccc(N(C)C(=S)Oc2ccc3ccccc3c2)c1 [Tolnaftate] and state if its LC retention time is at or above 8 min.
TRUE

API: above_or_equal(metric=LC retention time, cutoff=8 min) for item COC(=O)c1ccc(O)cc1
FALSE

Identify whether the reported LC retention time of the following compound is 8 min or greater: CC(=O)Nc1c(I)c(C(=O)O)c(I)c(C(=O)NCCO)c1I
FALSE

Decide: is the reported value of LC retention time for CC(=O)SC1CC2=CC(=O)CCC2(C)C2CCC3(C)C(CCC34CCC(=O)O4)C12 (stereo not drawn) equal to or greater than 8 min?
TRUE

Test whether the compound CCCC1CC(C(=O)NC(C(C)O)C2OC(SC)C(O)C(O)C2O)N(C)C1 (stereo not drawn) records LC retention time of 8 min or higher.
FALSE

Item CCNCC(O)c1cccc(O)c1 (stereo not drawn) with LC retention time of 8 min or above?
FALSE

Does the reported LC retention time for CC=C(C)C(=O)OC1CC(OC(C)=O)C2(C(=O)OC)COC3C2C12COC(O)(C(=O)OC)C2C(C)(C12OC1(C)C1CC2OC2OC=CC21O)C3O (stereo not drawn) fall at or above the 8 min mark?
FALSE

====

test: RP, Thermo Scientific Acclaim RSLC 120 C18, 100 × 2.1 mm, 2.2 µm, 30 °C, 0.2 mL/min, estimated dead time 1.1 min; A: 90% water + 10% methanol + 0.01% formic acid + 5 mM ammonium formate, pH 3.61; B: methanol + 0.01% formic acid + 5 mM ammonium formate, pH 3.61; gradient (min/%B) 0/1 1/1 2/39 13/99.9 15/99.9 15.1/1 20.1/1; conditions: stereoisomer not certain
Measured parameter: LC retention time (min)
Write it as a number; the unit min goes unstated.

Hello, please tell me recorded LC retention time for this one: CNC1(c2ccccc2Cl)CCCCC1=O (configuration not stated) [Ketamine]
4.61

Please give the documented LC retention time of CN(C)S(N)(=O)=O [N,N-Dimethylsulfamide]
2.02

Give reported LC retention time value for COc1cc(C)c(C(=O)c2c(OC)ccc(Br)c2C)c(OC)c1OC [Metrafenone]
11.4

Retrieve LC retention time measured for CN1Cc2c(N)cccc2C(c2ccccc2)C1 (configuration not stated) [Nomifensine] and print it.
5.42

For Cc1c(NC(=O)c2cccnc2)c(=O)n(-c2ccccc2)n1C [Nifenazone] , write its LC retention time.
4.56

In one line, give reported LC retention time of the entry COP(=O)(OC)OC(Br)C(Cl)(Cl)Br (configuration not stated) [Naled] .
8.55

Identify LC retention time associated with the molecule CC(C)C1CCC(C(=O)NC(Cc2ccccc2)C(=O)O)CC1 (configuration not stated) [Nateglinide]
10.4

Report LC retention time for CC(C)OC(=O)NC(C(=O)NC(C)c1nc2ccc(F)cc2s1)C(C)C (configuration not stated) [Benthiavalicarb-isopropyl]
9.48

Using the record for CCNc1nc(NC(C)(C)C)nc(OC)n1 [Terbumeton] , state its measured LC retention time.
9.16

Return the recorded LC retention time value; entry: O=C1C2CC=CCC2C(=O)N1SC(Cl)(Cl)Cl (configuration not stated) [Captan]
8.77

Consider the molecule COc1ccc(C(CN)C2(O)CCCCC2)cc1 [Venlafaxine- D L-N N-Didesmethyl] and give its recorded LC retention time.
6.34

Quickly give me recorded LC retention time for CNCCCC1c2ccccc2C=Cc2ccccc21 [Protriptyline]
7.99

Supply reported LC retention time belonging to this molecule: CCOC(=O)C(CCc1ccccc1)NC(C)C(=O)N1CC2(CC1C(=O)O)SCCS2 (configuration not stated) [Spirapril]
8.23

Read off the recorded LC retention time for CN(C)CCCC1(c2ccc(F)cc2)OCc2cc(C(=O)O)ccc21 (configuration not stated) [Citalopram carboxylic acid]
5.83

Supply reported LC retention time belonging to this molecule: O=C(c1cccc2ccccc12)c1cn(CCCCO)c2ccccc12 [JWH-073-M-4-OH-Butyl]
9.56

Given COc1ccc(CC(C)NCC(O)c2ccc(O)c(NC=O)c2)cc1 (configuration not stated) [Formoterol] , respond with its LC retention time.
4.79

Query LC retention time for CN(CCO)CC(O)Cn1cnc2c1c(=O)n(C)c(=O)n2C (configuration not stated) [Xanthinol]
2.99

Give LC retention time for CN1CCCCC1Cn1cc(C(=O)C2C(C)(C)C2(C)C)c2ccccc21 (configuration not stated) [AB-005]
8.81

Return reported LC retention time. Input molecule: Nc1ccc(S(=O)(=O)NC(=O)c2ccccc2)cc1 [Sulfabenzamide]
4.72

Supply measured LC retention time of O=C(Oc1cccc2ccccc12)c1nn(CCCCCF)c2ccccc12 [SDB-005-5F] in your reply.
12.1

Output LC retention time of N=C1CN(O)C(c2ccccc2)=c2cc(Cl)ccc2=N1 [Chlordiazepoxide-Desmethyl]
8.27

// Input: COc1cc(OC)nc(NC(=O)NS(=O)(=O)N(C)S(C)(=O)=O)n1 [Amidosulfuron] . Output its LC retention time only.
6.77

Answer with the recorded LC retention time for the molecule listed here: Cc1c(Cl)cccc1Nc1ccccc1C(=O)O [Tolfenamic acid]
11.9

Give LC retention time for the following molecule: CCCCOc1ccc(CC(=O)NO)cc1 [Bufexamac]
7.83

Respond only with LC retention time recorded for OC(Cc1ccccc1Cl)(Cn1cncn1)C1(Cl)CC1 (configuration not stated) [Prothioconazole-desethio]
10.5

Supply recorded LC retention time for CN(C)CCN1C(=O)c2ccccc2N(C)c2ccccc21 [Dibenzepin] here.
5.49

Tell us which LC retention time value is on record for CN(C(=O)CN(CCO)CC(=O)N(C)C(C)(C)Cc1ccccc1)C(C)(C)Cc1ccccc1 [Oxetacaine]
10.9

Annotate the molecule CN(C)C(=O)Nc1ccc(Oc2ccc(Cl)cc2)cc1 [Chloroxuron (Chloroxifenidim)] with its measured LC retention time.
9.99

Identify the reported LC retention time for the following entry. CNCCC(Oc1ccccc1C)c1ccccc1 (configuration not stated) [Atomoxetine]
7.63

Entry CCN(C(=O)SCc1ccccc1)C(C)C(C)C (configuration not stated) [Esprocarb] needs its LC retention time filled in; supply it.
12.2

Query LC retention time for CCC(CC)COC(C(=O)OCCN(C)C)(c1ccccc1)c1ccccc1 [Denaverine]
11.6

Determine from records and report LC retention time for CCCC(C)(COC(N)=O)COC(=O)NC(C)C (configuration not stated) [Carisoprodol]
7.99

Provide measured LC retention time value, entry: CCOCCc1ccc(OCCNc2ncnc(CC)c2Cl)c(C)c1C [Pyrimidifen]
12.5

Return value of LC retention time for input CCOP(=S)(OCC)SCS(=O)(=O)C(C)(C)C [Terbufos sulfone] , no commentary.
9.01

Supply recorded LC retention time for c1ccc2sc(NC3CCCCC3)nc2c1 [N-Cyclohexyl-2-benzothiazol-amine] here.
10.9

Give recorded LC retention time. Nc1[nH]c(=O)ncc1F [Cytosine-5-Fluoro (broad peak)]
1.43

Answer with the recorded LC retention time for the molecule listed here: CCN(CC)CC(=O)Nc1c(C)cccc1C(=O)OC [Tolycaine]
4.59
